For each of the compounds below, state its LD50.
Test: LD50 by mouth in the mouse
Assay type: in vivo
Conditions: in vivo, po
Protocol: a. LD50 by mouth in the mouse about 3000 mg/kg 25 gr of XVI are dissolved in 400 ml of water with NaOH 15% to pH 9, filtered and lyophilized : 24 gr of sodium salt of XVI as a white solid are obtained, humidity (K. Fisher) 2.08%, no U.V. absorption, equivalent weight found 301.7, I.R. bands at 3400, 1765, 1565, 1460, 1420, 1378 cm^-1. After 20 hours at 20°, the solvent is evaporated in vacuo, the residue is dissolved in 1300 ml of water treated with 120 ml of acetic acid, extracted with chloroform. […]
Where a name gives a salt, the structure may show the parent alone.

Query string: Read the entry CCCCCCC1CCC(O)C1CCCCCCC(=O)O (centres unmarked) [Compound C83, sodium salt] and write its reported LD50.
Result string: ~3000 mg/kg

Query string: Assign LD50 to the following record: CCCCCCC12CCC(O)C1(CCCCCCC(=O)O)O2 (centres unmarked) [sodium salt of XVI]
Result string: ~1500 mg/kg
